Where these numbers come from: the supplement of paper PMC11908140

B1: library; numbered along this chain (parent)
chain: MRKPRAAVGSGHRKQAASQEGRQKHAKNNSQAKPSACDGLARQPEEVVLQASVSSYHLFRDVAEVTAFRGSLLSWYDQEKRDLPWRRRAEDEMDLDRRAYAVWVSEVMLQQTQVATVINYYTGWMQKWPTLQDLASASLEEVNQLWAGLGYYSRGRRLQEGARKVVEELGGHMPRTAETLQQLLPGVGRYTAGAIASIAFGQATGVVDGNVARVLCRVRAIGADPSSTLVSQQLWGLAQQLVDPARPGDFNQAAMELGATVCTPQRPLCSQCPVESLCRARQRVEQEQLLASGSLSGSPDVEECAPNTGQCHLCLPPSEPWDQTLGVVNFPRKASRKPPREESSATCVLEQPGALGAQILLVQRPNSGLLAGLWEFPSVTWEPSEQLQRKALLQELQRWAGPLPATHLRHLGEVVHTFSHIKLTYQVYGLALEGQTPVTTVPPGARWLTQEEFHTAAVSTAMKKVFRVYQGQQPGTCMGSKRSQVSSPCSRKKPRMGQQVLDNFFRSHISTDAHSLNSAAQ

Variants of: B1
Method Summary: 8OG:A repair function score (normalized; synonymous = 0, nonsense = -1) (normalized log-likelihood score); higher = more repair activity (WT-like);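 also: cells sorted at 72 h after reporter transfection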
Measurement Setup: with 8OG:A DNA repair reporter (GFP) in HEK-293 MUTYH KO cells
Respond with yes for 8OG:A repair function score values of -0.06 and above, no for values below.

Some solved cases for reference:
Lookup: Kindly determine if 8OG:A repair function score recorded for "M496P" is above or exactly -0.06.
Found: yes

Lookup: Please do the same for "A223H" as well.
Found: no

Lookup: What do we get for "T263M" ?
Found: yes

Lookup: And then "S344N" , what is it?
Found: yes

Lookup: Note, next up: "V328A"
Found: no

Lookup: Next variant up: "R364F"
Found: no

Lookup: Moving on to the next variant: "T380S"
Found: yes

Lookup: Check "S105T" too.
Found: no

Lookup: Cool, now "S378C"
Found: yes

Lookup: Same for "S292V"
Found: yes

***
Lookup: // inclusive: 8OG:A repair function score at least -0.06? input: "W381K"
Found: no

Lookup: Please answer likewise for "H172N"
Found: no

Lookup: Try this variant next: "T449V"
Found: no

Lookup: // same read-out, input: "A36Q"
Found: no

Lookup: For "A520D" then?
Found: yes

Lookup: // next record "A457E"
Found: no

Lookup: "L448D" ?
Found: no

Lookup: Same read-out for "C311W" ?
Found: no

Lookup: How about "D94H" ?
Found: no

Lookup: How about this variant: "Q397T"
Found: no

Lookup: Repeat with "A238T"
Found: no

Lookup: Next up: "S378I"
Found: no
